Please provide measured z-score for the entries that follow.
# Assay protocol: HepG2 cell viability effects, profiling panel, calcein-AM fluorescence, 48 h, basal (AID 1164); also: test concentration not given here
# Stated conditions: higher = more signal

Example compounds with recorded z-score:
Substance smiles: CCOC(=O)C1=C[C@@H](C(C)(C)C)N(S(=O)(=O)c2ccc(C)cc2)[C@H]1c1ccc(C)cc1
Result: -1.73
--
Substance smiles: COc1ccc(CCNC(=O)[C@@]2(Cc3ccccc3I)c3ccccc3C(=O)N(Cc3ccccc3Cl)[C@H]2c2ccc(CO)cc2)cc1
Result: -0.63
--
Substance smiles: COc1ccc([Si](C)(C)[C@H]2[C@H](CCO)O[C@@]3(C(=O)N(Cc4ccccc4)c4ccc(N5CCOC5=O)cc43)[C@@H]2C)cc1
Result: -2.09
--
Substance smiles: COC(=O)[C@@]1(Cc2ccc(F)cc2)[C@H]2c3cc(C(=O)N(C)C)n(Cc4ccc(O)c(OC)c4)c3C[C@H]2CN1C(=O)c1ccccc1
Result: -0.269

// below: z-score requested for another compound
// returns reported z-score for input C=C(C(=O)CC[C@@H](OC(=O)c1ccccc1-c1ccccc1C(=O)O)c1ccccc1OCCO)C(C)C
-0.188
